Cited source for all entries: the array DNA melting data of Ke et al. (doi:10.1101/2024.01.08.574731)

Experiment: melting temperature; fluorescence melt of hairpins on a sequencing array, two-state fit, raised by 9.35 °C to match UV melts
Conditions: sodium 0.088 M

| Sequence Entry | Tm [°C] |
| --- | --- |
| GGGGAGTCGAAAGACCCC (((..(((....)))))) | 54.7 |
| GGTGCCGGAAACGACACC ((((.((....)).)))) | 54.6 |
| GTATACCGAAAGGTCTAC (((.(((....))).))) | 40.7 |
| GGAGCTACGAAAGTATCC (((..(((....)))))) | 19.7 |
| GACTTTGGAAACAAAGTC (((((((....))))))) | 57.8 |
| GCCCTGGGAAACCAAGGC (((.(((....))).))) | 44.8 |

###

Assay: folding enthalpy; higher = less favourable; fluorescence melt of hairpins on a sequencing array, two-state fit
Conditions: sodium 0.088 M
Parameter threshold = -20 kcal/mol. Response is true (1) when folding enthalpy meets or exceeds it, else false (0).

| Sequence Entry | Class Assignment |
| --- | --- |
| GATCTTTGTCAAGATC ((((((....)))))) | false (0) |
| GCACGCGAAAGCGTTGC ((((((....))).))) | true (1) |
| GACTTGCGAAAGCAGTC (((.(((....)))))) | true (1) |
| GATCGCCTGCGCGATC ((((((....)))))) | false (0) |
| GGGTCTGGAAACAGACTC (.(((((....))))).) | false (0) |
| GATCTTCGAAAGATC ((((((...)))))) | false (0) |

###

Assay: melting temperature; fluorescence melt of hairpins on a sequencing array, two-state fit, raised by 9.35 °C to match UV melts
Settings: sodium 0.088 M
# label = bin(measured Tm), where bins are low-valued (below 40 °C), mid-valued (40 °C to below 50 °C), high-valued (50 °C or more)

| Sequence Entry | Class Assignment |
| --- | --- |
| GATCTGTGTTCAGATC ((((((....)))))) | high-valued |
| GGCCCACCGAAAGGTGCC (((..(((....)))))) | low-valued |
| GTGGTTGGAAACAACCGC (.(((((....))))).) | high-valued |
| GCGGATGGAAACATCCAC (.(((((....))))).) | mid-valued |
| GCTACGCGAAAGCATTGC ((.(.((....)).).)) | low-valued |
| GGGGCAACGAAAGTTCCC (((..(((....)))))) | mid-valued |
| GCCAGTCGAAAGACCGGC (((.(((....))).))) | high-valued |
| CGTCTTCGGAAACGAACG (((..(((....)))))) | low-valued |
| GATCGAGAGCTCGATC ((((((....)))))) | high-valued |
| GTATCCGGAAACGAATAC ((((.((....)).)))) | low-valued |
| GTAAGCGAAAGCTTGTAC ((((((....)))..))) | low-valued |
| CGGACGGAAACGTTGCCG ((((((....)))..))) | low-valued |
| GTCGGAACGAAAGTTGAC (((..(((....)))))) | low-valued |
| GATCCGCATGCGGATC ((((((....)))))) | high-valued |
| GATCGTTCTACGATC ((((((...)))))) | high-valued |
| GCTTGCGAAAGCATCAGC ((((((....)))..))) | low-valued |
| GGACCGGGAAACCGGCCC ((.((((....)))).)) | high-valued |
| GATCTCTATGAGATC ((((((...)))))) | high-valued |
| GGTGGAGGAAACTCCGCC ((.((((....)))).)) | high-valued |
| GTTTCCGAAAGGAGGAAC ((((((....)))..))) | low-valued |
| GGTCACGAAAGTGAGACC ((((((....)))..))) | mid-valued |
| GGTGTTGGAAACGACATC (.(((.(....).))).) | low-valued |
| GTACCGGGAAACCGGTAC (((((((....))))))) | high-valued |
| GGCAGCGGAAACGCTACC ((.((((....)))).)) | high-valued |
| GATCCTGCCAGGATC ((((((...)))))) | high-valued |
| GGAAGCGAAAGCTGCTCC ((((((....)))..))) | low-valued |
| GGCAACGAAAGTTCGCC ((((((....))).))) | high-valued |
| GGCAAGTCGAAAGACGCC (((..(((....)))))) | high-valued |
| GACTCCGAAAGGACAGTC ((((((....)))..))) | low-valued |
| GGCGTGGGAAACCATGCC (((.(((....))).))) | high-valued |
| GAAAGTGGAAACACTCTC ((.((((....)))).)) | low-valued |
| GTGAGTGGAAACACCCAC (((.(((....))).))) | mid-valued |
| GCTCGCGAAAGCGGGAGC ((((((....)))..))) | high-valued |
| GGGTTGGGAAACTGACCC ((((..(....)..)))) | mid-valued |
| GACGCTGGAAACGGTGTC (((.(.(....).).))) | mid-valued |
| GAGACGGGAAACCGTTTC ((.((((....)))).)) | mid-valued |
| GATCCCTGCTGGGATC ((((((....)))))) | high-valued |
| GGAAGTGGAAACACTTCC (((((((....))))))) | high-valued |
| GATCACGCATGTGATC ((((((....)))))) | high-valued |
| GGTTCCGAAAGGAGACC ((((((....))).))) | mid-valued |
| GAGTCTGGAAACAGGCTC (((.(((....))).))) | high-valued |
| GAGAATGGAAACATTTTC ((.((((....)))).)) | low-valued |
| GAGAAGGGAAACTTTCTC (((((.(....).))))) | low-valued |
